# procedure_summary: Partition coefficient (Log P), shake flask method
# Assay type: physicochemical
# settings: n-octanol/water

- molecule: "CCN(CC)c1ccc2cc(/C=C/c3ccc4ccccc4[n+]3C)c(=O)oc2c1.[I-] [QC]"
  logP: 2.4

----------
# measured_target: Aβ42 aggregates (Homo sapiens)
# Sequence (P05067 672-713 limits assumed): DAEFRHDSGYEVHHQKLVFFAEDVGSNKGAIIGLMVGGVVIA
# procedure_summary: Binding saturation assay (fluorescence) for binding constant
# settings: fluorescence saturation curve; Aβ42 aggregates 10 μM (QC) or 2 μM (TC); read-out: dissociation constant Kd
Reported Kd values for the following compounds.

- chemical_smiles: "CCN(CC)c1ccc2cc(/C=C/c3ccc4ccccc4[n+]3C)c(=O)oc2c1.[I-]"
  Kd, nM: 82
- chemical_smiles: "CCN(CC)c1ccc2cc(/C=C/c3sc4ccccc4[n+]3C)c(=O)oc2c1"
  Kd, nM: 58
